meta.source: ChEMBL document CHEMBL4052714

// reported log10 of MIC per item
- Test system: Streptococcus pneumoniae
- PROTOCOL DETAILS: Antibacterial activity against erythromycin-resistant Streptococcus pneumoniae A22072 expressing mefA gene
- Assay type: functional
The common logarithm of MIC in µg/mL is what is listed.

Solved cases (4 shown):
>>> assay_value("CC[C@H]1OC(=O)[C@H](C)[C@@H](O[C@H]2C[C@@](C)(OC)[C@@H](O)[C@H](C)O2)[C@H](C)[C@@H](O[C@@H]2O[C@H](C)C[C@H](N(C)C)[C@H]2O)[C@](C)(OC)C[C@@H](C)C(=O)[C@H](C)[C@@H](O)[C@]1(C)O [CLARITHROMYCIN]")
0.60
>>> assay_value("CC[C@H]1OC(=O)[C@H](C)[C@@H](O[C@H]2C[C@@](C)(OC)[C@@H](OC(=O)NCc3cn(Cc4ccc(C)cc4)nn3)[C@H](C)O2)[C@H](C)[C@@H](O[C@@H]2O[C@H](C)C[C@H](N(C)C)[C@H]2O)[C@](C)(O)C[C@@H](C)CN(C)[C@H](C)[C@H]2OC(=O)O[C@@]21C")
0.00
>>> assay_value("CC[C@H]1OC(=O)[C@H](C)[C@@H](O[C@H]2C[C@@](C)(OC)[C@@H](OC(=O)NCc3cn(Cc4ccc(Cl)cc4)nn3)[C@H](C)O2)[C@H](C)[C@@H](O[C@@H]2O[C@H](C)C[C@H](N(C)C)[C@H]2O)[C@](C)(O)C[C@@H](C)CN(C)[C@H](C)[C@H]2OC(=O)O[C@@]21C")
0.00
>>> assay_value("CC[C@H]1OC(=O)[C@H](C)[C@@H](O[C@H]2C[C@@](C)(OC)[C@@H](OC(=O)NCc3cn(Cc4ccc(Cl)cc4Cl)nn3)[C@H](C)O2)[C@H](C)[C@@H](O[C@@H]2O[C@H](C)C[C@H](N(C)C)[C@H]2O)[C@](C)(O)C[C@@H](C)CN(C)[C@H](C)[C@@H](OC(=O)NCc2ccc(OC)cc2)[C@]1(C)O")
-0.90

Input `CC[C@H]1OC(=O)[C@H](C)[C@@H](O[C@H]2C[C@@](C)(OC)[C@@H](OC(=O)NCc3cn(Cc4ccc(Cl)cc4Cl)nn3)[C@H](C)O2)[C@H](C)[C@@H](O[C@@H]2O[C@H](C)C[C@H](N(C)C)[C@H]2O)[C@](C)(O)C[C@@H](C)CN(C)[C@H](C)[C@@H](O)[C@]1(C)O` , output reported log10 of MIC.
-0.60

Input `CC[C@H]1OC(=O)[C@H](C)[C@@H](O[C@H]2C[C@@](C)(OC)[C@@H](OC(=O)NCc3cn(Cc4ccccc4)nn3)[C@H](C)O2)[C@H](C)[C@@H](O[C@@H]2O[C@H](C)C[C@H](N(C)C)[C@H]2O)[C@](C)(O)C[C@@H](C)CN(C)[C@H](C)[C@H]2OC(=O)O[C@@]21C` , output reported log10 of MIC.
0.90

Input `CC[C@H]1OC(=O)[C@H](C)[C@@H](O[C@H]2C[C@@](C)(OC)[C@@H](OC(=O)NCc3cn(Cc4ccc(C)cc4)nn3)[C@H](C)O2)[C@H](C)[C@@H](O[C@@H]2O[C@H](C)C[C@H](N(C)C)[C@H]2O)[C@](C)(O)C[C@@H](C)CN(C)[C@H](C)[C@@H](O)[C@]1(C)O` , output reported log10 of MIC.
-0.30

Input `CC[C@H]1OC(=O)[C@H](C)[C@@H](O[C@H]2C[C@@](C)(OC)[C@@H](OC(=O)NCc3cn(Cc4cccc(C)c4)nn3)[C@H](C)O2)[C@H](C)[C@@H](O[C@@H]2O[C@H](C)C[C@H](N(C)C)[C@H]2O)[C@](C)(O)C[C@@H](C)CN(C)[C@H](C)[C@H]2OC(=O)O[C@@]21C` , output reported log10 of MIC.
0.30

Input `CC[C@H]1OC(=O)[C@H](C)[C@@H](O[C@H]2C[C@@](C)(OC)[C@@H](OC(=O)NCc3cn(Cc4ccc(F)cc4)nn3)[C@H](C)O2)[C@H](C)[C@@H](O[C@@H]2O[C@H](C)C[C@H](N(C)C)[C@H]2O)[C@](C)(O)C[C@@H](C)CN(C)[C@H](C)[C@H]2OC(=O)O[C@@]21C` , output reported log10 of MIC.
0.00

====

// reported MIC per item
- System: Staphylococcus aureus
- PROTOCOL DETAILS: Antibacterial activity against erythromycin-susceptible Staphylococcus aureus ATCC 25923
- Format: functional
Report the value in µg/mL with no unit label.

>>> assay_value("CC[C@H]1OC(=O)[C@H](C)[C@@H](O[C@H]2C[C@@](C)(OC)[C@@H](OC(=O)NCc3cn(Cc4ccc(C)cc4)nn3)[C@H](C)O2)[C@H](C)[C@@H](O[C@@H]2O[C@H](C)C[C@H](N(C)C)[C@H]2O)[C@](C)(O)C[C@@H](C)CN(C)[C@H](C)[C@@H](O)[C@]1(C)O")
1

Input `CC[C@H]1OC(=O)[C@H](C)[C@@H](O[C@H]2C[C@@](C)(OC)[C@@H](OC(=O)NCc3cn(Cc4ccc(Br)cc4)nn3)[C@H](C)O2)[C@H](C)[C@@H](O[C@@H]2O[C@H](C)C[C@H](N(C)C)[C@H]2O)[C@](C)(O)C[C@@H](C)CN(C)[C@H](C)[C@H]2OC(=O)O[C@@]21C` , output reported MIC.
2

Input `CC[C@H]1OC(=O)[C@H](C)[C@@H](O[C@H]2C[C@@](C)(OC)[C@@H](OC(=O)NCc3cn(Cc4cccc(F)c4)nn3)[C@H](C)O2)[C@H](C)[C@@H](O[C@@H]2O[C@H](C)C[C@H](N(C)C)[C@H]2O)[C@](C)(O)C[C@@H](C)CN(C)[C@H](C)[C@H]2OC(=O)O[C@@]21C` , output reported MIC.
4

====

// reported MIC per item
- System: Staphylococcus aureus
- PROTOCOL DETAILS: Antibacterial activity against erythromycin-susceptible Staphylococcus aureus ATCC 25923
- Format: functional
Could you kindly put the unit after your number?

>>> assay_value("CC[C@H]1OC(=O)[C@H](C)[C@@H](O[C@H]2C[C@@](C)(OC)[C@@H](OC(=O)NCc3cn(Cc4ccccc4Cl)nn3)[C@H](C)O2)[C@H](C)[C@@H](O[C@@H]2O[C@H](C)C[C@H](N(C)C)[C@H]2O)[C@](C)(O)C[C@@H](C)CN(C)[C@H](C)[C@@H](O)[C@]1(C)O")
"1 µg/mL"

Input `CC[C@H]1OC(=O)[C@H](C)[C@@H](O[C@H]2C[C@@](C)(OC)[C@@H](OC(=O)NCc3cn(Cc4ccc(C)cc4)nn3)[C@H](C)O2)[C@H](C)[C@@H](O[C@@H]2O[C@H](C)C[C@H](N(C)C)[C@H]2O)[C@](C)(O)C[C@@H](C)CN(C)[C@H](C)[C@@H](OC(=O)NCc2ccccc2)[C@]1(C)O` , output reported MIC.
0.5 µg/mL

Input `CC[C@H]1OC(=O)[C@H](C)[C@@H](O[C@H]2C[C@@](C)(OC)[C@@H](OC(=O)NCc3cn(Cc4ccc(Cl)cc4)nn3)[C@H](C)O2)[C@H](C)[C@@H](O[C@@H]2O[C@H](C)C[C@H](N(C)C)[C@H]2O)[C@](C)(O)C[C@@H](C)CN(C)[C@H](C)[C@@H](OC(=O)NCc2ccccc2)[C@]1(C)O` , output reported MIC.
0.25 µg/mL

====

- Tested on: Staphylococcus aureus
- PROTOCOL DETAILS: Antibacterial activity against erythromycin-susceptible Staphylococcus aureus ATCC 25923
- Assay type: functional
READOUT TYPE: MIC (µg/mL)
Report the value in µg/mL with no unit label.

Solved cases (2 shown):
>>> assay_value("CC[C@H]1OC(=O)[C@H](C)[C@@H](O[C@H]2C[C@@](C)(OC)[C@@H](OC(=O)NCc3cn(Cc4ccccc4)nn3)[C@H](C)O2)[C@H](C)[C@@H](O[C@@H]2O[C@H](C)C[C@H](N(C)C)[C@H]2O)[C@](C)(O)C[C@@H](C)CN(C)[C@H](C)[C@@H](OC(=O)NCc2ccccc2)[C@]1(C)O")
0.016
>>> assay_value("CC[C@H]1OC(=O)[C@H](C)[C@@H](O[C@H]2C[C@@](C)(OC)[C@@H](OC(=O)NCc3cn(Cc4c(Cl)cccc4Cl)nn3)[C@H](C)O2)[C@H](C)[C@@H](O[C@@H]2O[C@H](C)C[C@H](N(C)C)[C@H]2O)[C@](C)(O)C[C@@H](C)CN(C)[C@H](C)[C@@H](OC(=O)NCc2ccc(OC)cc2)[C@]1(C)O")
0.25

Now look at this one.
Input `CC[C@H]1OC(=O)[C@H](C)[C@@H](O[C@H]2C[C@@](C)(OC)[C@@H](OC(=O)NCc3cn(Cc4ccccc4)nn3)[C@H](C)O2)[C@H](C)[C@@H](O[C@@H]2O[C@H](C)C[C@H](N(C)C)[C@H]2O)[C@](C)(O)C[C@@H](C)CN(C)[C@H](C)[C@H]2OC(=O)O[C@@]21C` , output reported MIC.
4
